I'd appreciate it if you could supply Tmax values for the items below.
Experiment: Tmax in Sprague-Dawley rat at 50 mg/kg, po by LC-MS analysis
Type: ADME, organism-based
Conditions: in vivo
One number for each entry, in min.

COMPOUND	READOUT_LABEL	UNIT_TEXT	RECORDED_NUMBER
CC(=O)N[C@H]1[C@H](OCCCCC(=O)NCCOCCOCCOCCOCCn2cc(COP(=O)(CO[C@H](C)Cn3cnc4c(N)ncnc43)OCOC(=O)C(C)(C)C)nn2)O[C@H](CO)[C@H](O)[C@H]1O (some centres not stated)	Tmax	min	45

Read the next record carefully.
Prompt: // returns reported Tmax for input CC(=O)N[C@H]1[C@H](OCCCCC(=O)NCCOCCOCCOCCOCCn2cc(COP(=O)(COCCn3cnc4c(N)ncnc43)OCOC(=O)C(C)(C)C)nn2)O[C@H](CO)[C@H](O)[C@H]1O (some centres not stated)
Response: 40.2

Entry source: ChEMBL document CHEMBL6153042
